Target: Epidermal growth factor receptor (Mus musculus)
Sequence (Q01279 whole entry): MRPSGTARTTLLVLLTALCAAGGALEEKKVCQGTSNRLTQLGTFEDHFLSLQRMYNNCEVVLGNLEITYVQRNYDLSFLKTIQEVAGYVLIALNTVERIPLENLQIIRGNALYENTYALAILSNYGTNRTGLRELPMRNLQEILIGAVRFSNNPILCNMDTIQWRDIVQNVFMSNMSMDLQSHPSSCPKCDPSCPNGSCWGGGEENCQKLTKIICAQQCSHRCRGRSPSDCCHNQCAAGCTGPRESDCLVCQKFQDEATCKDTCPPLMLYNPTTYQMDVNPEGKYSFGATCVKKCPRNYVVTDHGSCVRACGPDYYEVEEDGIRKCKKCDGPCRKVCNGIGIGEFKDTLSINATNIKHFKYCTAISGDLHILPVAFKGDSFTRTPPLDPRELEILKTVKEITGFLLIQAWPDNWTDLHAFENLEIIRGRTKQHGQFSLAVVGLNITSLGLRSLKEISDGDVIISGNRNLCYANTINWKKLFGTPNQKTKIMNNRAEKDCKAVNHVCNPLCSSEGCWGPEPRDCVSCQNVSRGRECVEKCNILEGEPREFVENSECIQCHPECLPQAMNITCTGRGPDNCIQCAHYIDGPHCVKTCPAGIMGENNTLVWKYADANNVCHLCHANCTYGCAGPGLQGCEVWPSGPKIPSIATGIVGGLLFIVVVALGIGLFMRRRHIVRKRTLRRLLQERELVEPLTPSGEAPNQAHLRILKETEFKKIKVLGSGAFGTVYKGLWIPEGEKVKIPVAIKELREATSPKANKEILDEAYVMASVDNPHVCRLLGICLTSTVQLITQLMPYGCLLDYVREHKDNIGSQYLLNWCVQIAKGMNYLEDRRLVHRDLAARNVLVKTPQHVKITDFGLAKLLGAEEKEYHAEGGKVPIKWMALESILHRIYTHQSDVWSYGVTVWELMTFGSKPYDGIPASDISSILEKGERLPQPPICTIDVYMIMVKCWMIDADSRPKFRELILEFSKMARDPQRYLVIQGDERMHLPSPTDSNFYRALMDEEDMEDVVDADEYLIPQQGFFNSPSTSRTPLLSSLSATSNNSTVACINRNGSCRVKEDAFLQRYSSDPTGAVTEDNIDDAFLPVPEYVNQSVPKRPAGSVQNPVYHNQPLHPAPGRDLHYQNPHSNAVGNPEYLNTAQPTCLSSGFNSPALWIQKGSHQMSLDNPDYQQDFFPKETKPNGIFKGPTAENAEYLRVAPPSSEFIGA
readoutLabel: IC50 (nM)
Numbers only, in nM.

IC50 lookup needed for `COc1cc2ncnc(Nc3ccc(F)c(Cl)c3)c2cc1OC(=O)/C=C/n1cc(F)c(=O)[nH]c1=O` , thanks.
158

* * *

Would you kindly list pIC50 for each of these compounds?
Molecular target: Epidermal growth factor receptor (Homo sapiens)
Assay: Inhibition of EGFR phosphorylation in human A-431 cells incubated for 4 hr
Give bare numbers, as −log10 of the molar value.

- smiles: "COc1cc2ncnc(Nc3ccc(F)c(Cl)c3)c2cc1NC(=O)/C=C/n1cc(F)c(=O)[nH]c1=O"
  pIC50: 5.60

Now, please, on to the next compound.
Kindly state the measured pIC50 obtained for `COc1cc2ncnc(Nc3ccc(F)c(Cl)c3)c2cc1OC(=O)/C=C/n1cc(F)c(=O)[nH]c1=O` with Epidermal growth factor receptor (Homo sapiens).
7.80

* * *

Assay: Stability of compound assessed as formation of 5-fluorouracil by measuring half life
Would you kindly list t1/2 for each of these compounds?
One number for each entry, in h.

Solved entries (count: 2):
- smiles: "O=C(/C=C/n1cc(F)c(=O)[nH]c1=O)Oc1ccc(Cl)cc1"
  t1/2 / h: 2.9
- smiles: "COCCOCCOc1ccc(NC(=O)/C=C/n2cc(F)c(=O)[nH]c2=O)cc1"
  t1/2 / h: 10

Working through the 4 compounds below one at a time, give t1/2 for each.
1. O=C(/C=C/n1cc(F)c(=O)[nH]c1=O)Oc1ccc([N+](=O)[O-])cc1
2. O=C(/C=C/n1cc(F)c(=O)[nH]c1=O)Oc1ccc(F)cc1
3. N#Cc1ccc(OC(=O)/C=C/n2cc(F)c(=O)[nH]c2=O)cc1
4. COc1ccc(OC(=O)/C=C/n2cc(F)c(=O)[nH]c2=O)cc1

0.1
3
2.5
36

* * *

Target: Epidermal growth factor receptor (Homo sapiens, UniProt P00533)
Sequence (P00533 whole entry): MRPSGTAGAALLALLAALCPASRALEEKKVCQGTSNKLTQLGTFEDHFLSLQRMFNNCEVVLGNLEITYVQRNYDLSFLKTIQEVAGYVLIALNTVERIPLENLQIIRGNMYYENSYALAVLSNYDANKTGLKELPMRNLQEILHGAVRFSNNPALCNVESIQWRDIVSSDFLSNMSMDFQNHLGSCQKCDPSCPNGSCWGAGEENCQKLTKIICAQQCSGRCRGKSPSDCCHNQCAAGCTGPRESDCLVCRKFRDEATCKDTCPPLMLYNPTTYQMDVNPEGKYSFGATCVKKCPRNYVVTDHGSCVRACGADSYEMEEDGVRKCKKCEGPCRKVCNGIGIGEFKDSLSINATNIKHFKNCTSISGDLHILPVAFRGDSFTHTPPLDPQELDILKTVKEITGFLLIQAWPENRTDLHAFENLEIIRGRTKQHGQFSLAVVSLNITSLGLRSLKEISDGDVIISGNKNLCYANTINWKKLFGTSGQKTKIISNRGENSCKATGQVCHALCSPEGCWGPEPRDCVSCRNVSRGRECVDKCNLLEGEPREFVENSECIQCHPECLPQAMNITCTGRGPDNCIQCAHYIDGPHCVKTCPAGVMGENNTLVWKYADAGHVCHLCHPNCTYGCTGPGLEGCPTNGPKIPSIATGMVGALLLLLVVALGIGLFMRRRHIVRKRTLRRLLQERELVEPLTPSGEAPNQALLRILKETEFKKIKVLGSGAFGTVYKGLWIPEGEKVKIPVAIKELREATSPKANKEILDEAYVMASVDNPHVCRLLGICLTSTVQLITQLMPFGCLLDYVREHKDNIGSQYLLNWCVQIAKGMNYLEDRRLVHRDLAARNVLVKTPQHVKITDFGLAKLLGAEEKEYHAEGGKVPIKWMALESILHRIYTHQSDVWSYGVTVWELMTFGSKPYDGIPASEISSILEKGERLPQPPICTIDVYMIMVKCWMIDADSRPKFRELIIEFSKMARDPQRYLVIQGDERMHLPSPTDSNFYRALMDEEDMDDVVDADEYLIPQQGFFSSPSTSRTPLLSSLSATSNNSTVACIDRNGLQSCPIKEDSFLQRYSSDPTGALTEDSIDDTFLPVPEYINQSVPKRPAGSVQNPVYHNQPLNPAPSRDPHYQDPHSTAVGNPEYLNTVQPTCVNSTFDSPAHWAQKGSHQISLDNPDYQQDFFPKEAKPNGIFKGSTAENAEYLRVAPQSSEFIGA
Test: Inhibition of EGFR in human A-431 cells incubated for 2.5 hrs by HTRF analysis
Type: cell-based
Would you kindly list IC50 for each of these compounds?
Give bare numbers, in nM.

- smiles: "COc1cc2ncnc(Nc3ccc(F)c(Cl)c3)c2cc1NC(=O)/C=C/n1cc(F)c(=O)[nH]c1=O"
  units: "nM"
  IC50: 2510

IC50 lookup needed for `COc1cc2ncnc(Nc3ccc(F)c(Cl)c3)c2cc1OC(=O)/C=C/n1cc(F)c(=O)[nH]c1=O` , thanks.
15.8
